assay: Therapeutic index, ratio of CC50 for human HuH cells to EC50 for Hepatitis C virus subtype 1b; format: cell-based; details: read-out: Ratio CC50/EC50
Observed Property: selectivity ratio

>  <Mol>
C/C(=C\c1cc(-c2ccc(OCc3cc(C(=O)N4CCC(O)CC4)ccc3-c3ccc(C#N)cc3)cc2)n(C2CCCCC2)n1)C(=O)O

>  <Reported Measurement>
> 60

$$$$
